Cited source: patent US9409952B2

# Assay Overview: PAMPA (parallel artificial membrane permeability assay)
# Format: in vitro ADME
# Test Context: PAMPA; membrane permeation rate (Pe); 50 mM MOPSO buffer pH 6.5 with 5.0% glycocholic acid, 37° C., 18 hours; read-out: iPAMPA Pe
Starred links: 1 amine or outer side, 2 acyl side, 3 side chain; linkers in the order of their positions; H or OH if unused. Positions of bridges follow the written chain, without caps; N, C: chain ends. Non-standard residues stand in square brackets, D forms with d. Residues, ends and D or L forms follow the SMILES beside them. *: point of attachment. NMeF = CN[C@@H](Cc1ccccc1)C(=O)O; NMeGABA = CN(CCCC(=O)[*:2])[*:1]; NMeI = CC[C@H](C)[C@H](NC)C(=O)O; NMeL = CN[C@@H](CC(C)C)C(=O)O; NMeV = CN[C@H](C(=O)O)C(C)C; NMeA = CN[C@@H](C)C(=O)O; Piperidide = C1CCN(*)CC1; dNMeA = CN[C@H](C)C(=O)O; Sar = CNCC(=O)O
Measured Property: Papp at 18 hours, 50 µM
Please report the result as a number followed by the unit.

Some solved cases for reference:
Compound	Papp at 18 hours, 50 µM
CC(C)C[C@H]1C(=O)N[C@@H]([C@@H](C)O)C(=O)N(C)[C@@H](C)C(=O)N(C)[C@@H](CC(C)C)C(=O)N[C@@H](C(C)C)C(=O)N[C@H](C(=O)N(C)[C@@H](Cc2ccccc2)C(=O)N(C)[C@@H](Cc2ccccc2)C(=O)N[C@@H](C)C(=O)N2CCCCC2)CC(=O)N(C)[C@@H](C)C(=O)N(C)[C@@H](Cc2ccccc2)C(=O)N(C)CC(=O)N1C [DP-405] ([NMeA][NMeF][Sar][NMeL]T[NMeA][NMeL]VD[NMeF][NMeF]A-Piperidide; lactam N-9)	26 ×10⁻⁶ cm/s
CC(C)C[C@H]1C(=O)N(C)[C@@H](C)C(=O)N[C@@H](C)C(=O)N(C)[C@@H](C)C(=O)N(C)[C@@H](Cc2ccccc2)C(=O)N(C)[C@@H](C)C(=O)N[C@@H]([C@@H](C)O)C(=O)N(C)[C@@H](C)C(=O)N(C)[C@@H](C)C(=O)N[C@H](C(=O)N(C)[C@@H](Cc2ccccc2)C(=O)N[C@@H](C)C(=O)N2CCCCC2)CC(=O)N(C)[C@@H](C)C(=O)N1C [DP-368] ([NMeA][NMeL][NMeA]A[NMeA][NMeF][NMeA]T[NMeA][NMeA]D[NMeF]A-Piperidide; lactam N-11)	1.6 ×10⁻⁶ cm/s
CC[C@H](C)[C@@H]1NC(=O)[C@H](C(C)C)N(C)C(=O)[C@H](C)N(C)C(=O)[C@H]([C@@H](C)O)NC(=O)[C@H](CC(C)C)N(C)C(=O)[C@H](Cc2ccccc2)NC(=O)[C@H](CC(C)C)N(C)C(=O)[C@@H](C)N(C)C(=O)C[C@@H](C(=O)N2CCCCC2)NC(=O)[C@H](C)NC(=O)[C@H](CC(C)C)N(C)C1=O [DP-417] ([dNMeA][NMeL]F[NMeL]T[NMeA][NMeV]I[NMeL]AD-Piperidide; lactam N-11)	43 ×10⁻⁶ cm/s
CC[C@H](C)[C@H]1C(=O)N(C)[C@@H](CC(C)C)C(=O)N[C@H](C(=O)N2CCCCC2)CC(=O)N(C)CCCC(=O)N[C@@H]([C@@H](C)O)C(=O)N(C)[C@@H](C)C(=O)N(C)[C@@H](Cc2ccccc2)C(=O)N(C)[C@@H](Cc2ccccc2)C(=O)N(C)[C@@H](CC(C)C)C(=O)NCC(=O)N1C [DP-262] ([NMeGABA]T[NMeA][NMeF][NMeF][NMeL]G[NMeI][NMeL]D-Piperidide; lactam N-10)	38 ×10⁻⁶ cm/s

Read the next record carefully.
Reported Papp at 18 hours, 50 µM for CC(C)C[C@H]1C(=O)N(C)[C@@H](CC(C)C)C(=O)N[C@H](C(=O)N(C)[C@@H](Cc2ccccc2)C(=O)N[C@@H](C)C(=O)N2CCCCC2)CC(=O)N[C@@H](C)C(=O)N(C)[C@@H](C)C(=O)N(C)[C@@H](Cc2ccccc2)C(=O)N(C)[C@@H](CC(C)C)C(=O)N[C@@H]([C@@H](C)O)C(=O)N(C)CC(=O)N[C@@H](C(C)C)C(=O)N1C [DP-188] (A[NMeA][NMeF][NMeL]T[Sar]V[NMeL][NMeL]D[NMeF]A-Piperidide; lactam N-10) was 28 ×10⁻⁶ cm/s
